test: self-splicing fitness, log relative to wild type (ln ratio); higher = more splicing; Tetrahymena group I intron in knt gene, E. coli kanamycin selection, DiMSum; sequences stand for … in CUCUCU…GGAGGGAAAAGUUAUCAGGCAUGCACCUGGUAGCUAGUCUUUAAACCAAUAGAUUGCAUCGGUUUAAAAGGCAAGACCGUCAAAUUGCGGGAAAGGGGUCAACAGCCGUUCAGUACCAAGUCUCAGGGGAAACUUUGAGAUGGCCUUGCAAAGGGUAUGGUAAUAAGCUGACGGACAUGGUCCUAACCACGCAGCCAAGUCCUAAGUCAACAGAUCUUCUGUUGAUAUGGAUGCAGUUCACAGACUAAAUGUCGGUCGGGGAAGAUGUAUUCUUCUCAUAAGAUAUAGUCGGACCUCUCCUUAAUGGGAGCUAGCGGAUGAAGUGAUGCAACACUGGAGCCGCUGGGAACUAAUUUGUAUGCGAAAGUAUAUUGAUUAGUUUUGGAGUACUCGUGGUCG; settings: 37 °C;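 further: selection with 25 µg/mL kanamycin versus none on LB agar overnight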
Note to self: class = bucket of self-splicing fitness (ln), per Low = under -2, Mid = from -2 up to -1, High = -1 and over

| sequence-content | label-value |
| --- | --- |
| GUGCAGCAAUAUUACGGGUC | High |
| ACAGAGCAAUAUUACGUACU | Low |
| UCCAAGCAAUAUUACGCCCA | Mid |
| CAGUAGCAAUAUUACGUAAU | Low |
| UGGAAGCAAUAUUACGACAG | High |
| UCAGAGCAAUAUUACGUCAG | Low |
| GCCGAGCAAUAUUACGCAGG | Low |
| ACUAAGCAAUAUUACGAGUU | Low |
| CGAGAGCAAUAUUACGGGAC | Mid |
| AUCAAGCAAUAUUACGCUGC | High |
| CGUGAGCAAUAUUACGAGUG | High |
| ACAAAGCAAUAUUACGAAGG | Mid |
| GGUAAGCAAUAUUACGCGUA | High |
| UAUUAGCAAUAUUACGCGGA | Mid |
| UUGGAGCAAUAUUACGGACC | Low |

* * *

experiment: self-splicing fitness, log relative to wild type (ln ratio); higher = more splicing; Tetrahymena group I intron in knt gene, E. coli kanamycin selection, DiMSum; sequences stand for … in CUCUCU…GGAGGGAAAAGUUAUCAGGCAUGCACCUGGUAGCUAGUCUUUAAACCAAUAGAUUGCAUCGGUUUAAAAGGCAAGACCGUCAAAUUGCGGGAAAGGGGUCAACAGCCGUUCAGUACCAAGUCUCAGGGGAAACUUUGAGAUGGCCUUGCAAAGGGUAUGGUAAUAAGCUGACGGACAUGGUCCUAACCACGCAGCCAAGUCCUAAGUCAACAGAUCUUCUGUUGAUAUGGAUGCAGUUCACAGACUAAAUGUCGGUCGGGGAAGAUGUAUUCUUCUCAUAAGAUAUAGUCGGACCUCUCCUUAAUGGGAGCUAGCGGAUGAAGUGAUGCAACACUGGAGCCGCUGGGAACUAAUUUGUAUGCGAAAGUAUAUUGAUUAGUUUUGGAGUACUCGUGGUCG; conditions: 37 °C
Given measured self-splicing fitness (ln), output t if it is greater than or equal to -1 and f if not.

| sequence-content | label-value |
| --- | --- |
| AUCUAGCAAUAUUACGCCGG | f |
| AAAGAGCAAUAUUACGGGUA | f |
| AUUUAGCAAUAUUACGCUUU | f |
| GCCUAGCAAUAUUACGCGUC | t |
| AGUAAGCAAUAUUACGAUAU | t |
| GAGUAGCAAUAUUACGGAGC | f |
| AUUUAGCAAUAUUACGCUCU | t |
| GAUUAGCAAUAUUACGACGC | t |
| UCCUAGCAAUAUUACGCAGC | t |
| CAACAGCAAUAUUACGUGGU | f |
| CGACAGCAAUAUUACGCGGA | f |
| GUAAAGCAAUAUUACGGCCC | t |
| CGGCAGCAAUAUUACGCAAA | f |
| AUAAAGCAAUAUUACGUAUG | f |
| AUGUAGCAAUAUUACGGGUA | t |
| GGGCAGCAAUAUUACGCAUU | t |

* * *

experiment: self-splicing fitness, log relative to wild type (ln ratio); higher = more splicing; Tetrahymena group I intron in knt gene, E. coli kanamycin selection, DiMSum; sequences stand for … in CUCUCU…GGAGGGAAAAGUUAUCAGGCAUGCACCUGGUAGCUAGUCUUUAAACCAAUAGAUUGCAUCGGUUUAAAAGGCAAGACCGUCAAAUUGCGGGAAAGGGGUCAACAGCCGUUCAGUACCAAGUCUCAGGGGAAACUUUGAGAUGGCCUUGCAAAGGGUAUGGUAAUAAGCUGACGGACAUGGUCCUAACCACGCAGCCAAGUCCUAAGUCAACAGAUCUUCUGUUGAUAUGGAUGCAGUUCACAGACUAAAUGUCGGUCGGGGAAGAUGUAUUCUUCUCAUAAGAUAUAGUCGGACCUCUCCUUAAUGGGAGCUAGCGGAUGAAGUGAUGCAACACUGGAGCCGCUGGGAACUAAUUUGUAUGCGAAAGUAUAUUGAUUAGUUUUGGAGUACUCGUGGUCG; details: 37 °C
Note to self: class = bucket of self-splicing fitness (ln), per low interval = under -2, middle interval = from -2 up to -1, high interval = -1 and over

| sequence-content | label-value |
| --- | --- |
| CUCAAGCAAUAUUACGCUUG | low interval |
| GUCAAGCAAUAUUACGACGU | high interval |
| CUGUAGCAAUAUUACGCUCG | high interval |
| UAACAGCAAUAUUACGGGAU | low interval |
| AGUAAGCAAUAUUACGACGA | high interval |
| UACUAGCAAUAUUACGUUUC | low interval |
| UCAUAGCAAUAUUACGCCUC | middle interval |
| AGACAGCAAUAUUACGGUUA | high interval |
| GCGAAGCAAUAUUACGGGCU | middle interval |
| CCGAAGCAAUAUUACGGCUU | low interval |
| UUUGAGCAAUAUUACGUAUC | low interval |
| GGUGAGCAAUAUUACGGGCA | high interval |
| GCAUAGCAAUAUUACGCUUG | low interval |
| UCUCAGCAAUAUUACGGGAG | middle interval |
| UAUGAGCAAUAUUACGAACA | high interval |
| GUAAAGCAAUAUUACGGCCU | high interval |
| GAAGAGCAAUAUUACGCCAU | middle interval |
| AGUCAGCAAUAUUACGCAAC | middle interval |
| GCCGAGCAAUAUUACGUCAA | low interval |
| UAACAGCAAUAUUACGCCAG | middle interval |
| GGCAAGCAAUAUUACGAUCG | high interval |
| UGGAAGCAAUAUUACGAAAG | high interval |
| AAUUAGCAAUAUUACGCCUC | low interval |
| CAUAAGCAAUAUUACGUAAG | high interval |
| UCCCAGCAAUAUUACGCUCG | low interval |
| AUUCAGCAAUAUUACGCAGC | middle interval |
| UCUAAGCAAUAUUACGUGCU | low interval |
| ACCGAGCAAUAUUACGCCGA | low interval |
| GUCGAGCAAUAUUACGCGAC | low interval |
| ACCUAGCAAUAUUACGUAAG | high interval |
| GUUUAGCAAUAUUACGCUUU | high interval |
| GUUUAGCAAUAUUACGCACA | high interval |
| AGGCAGCAAUAUUACGGGGU | low interval |
| AGGUAGCAAUAUUACGCGGG | low interval |
| CCUCAGCAAUAUUACGUAUU | low interval |
| UUUAAGCAAUAUUACGUGCC | high interval |
| GCAAAGCAAUAUUACGUAGU | middle interval |
| CACUAGCAAUAUUACGGGUG | low interval |
| AUUAAGCAAUAUUACGAGGA | high interval |
| CACUAGCAAUAUUACGCUCA | low interval |
| ACCCAGCAAUAUUACGGAAC | high interval |
| GCUGAGCAAUAUUACGUGUU | low interval |
| UAGUAGCAAUAUUACGUUCG | high interval |
| AAAGAGCAAUAUUACGCGGA | low interval |
| AACUAGCAAUAUUACGUUCG | middle interval |
| UUACAGCAAUAUUACGGUGC | middle interval |
| GCUUAGCAAUAUUACGUGGU | middle interval |
| CAAGAGCAAUAUUACGCUAA | middle interval |
| AUGAAGCAAUAUUACGCGUU | high interval |
| UUGCAGCAAUAUUACGUAUU | middle interval |
| CUAAAGCAAUAUUACGGGCA | low interval |
| AACAAGCAAUAUUACGAAAA | low interval |
| UGAUAGCAAUAUUACGUAUA | middle interval |
| ACAUAGCAAUAUUACGUGAA | middle interval |
| AAAAAGCAAUAUUACGGUCC | high interval |
| CUUUAGCAAUAUUACGCCGA | low interval |
| GUAGAGCAAUAUUACGUCUC | high interval |
| GUCAAGCAAUAUUACGCCAA | middle interval |
| CUGGAGCAAUAUUACGAGUU | low interval |
| CGUCAGCAAUAUUACGAACU | high interval |
| UUGGAGCAAUAUUACGGCUU | low interval |
| UUGGAGCAAUAUUACGGGGU | low interval |
| UAGGAGCAAUAUUACGUCUU | high interval |
| AGGAAGCAAUAUUACGCGAU | low interval |
